Data origin, for the record: ChEMBL document CHEMBL1201862

# System: MDA-N
# Assay: NCI tumour cell line growth inhibition, 48 h
Activity calls are given as the source filed them. Cut-off read from the data, not from the text of the source: active = GI50 up to about 1.1 µM and inactive = higher.
Readout kind: GI50

Dear reader, for each entry below, please note its GI50.
1. Oc1cccc2cc(Cl)cnc12
2. CCOC1=NC(O)c2cccn2-c2sccc21 (stereo unspecified)
3. N#C/C(=C/NC(=S)Nc1ccc(S(N)(=O)=O)cc1)C(N)=O
4. CCOC(=O)c1ccc(NC(=O)O/N=C(/Cl)CCl)cc1
5. Nc1ccc(-c2nc3ccc(Cc4ccc5nc(-c6ccc(N)cc6)oc5c4)cc3o2)cc1

Output:
31.9 µM (inactive)
> 100 µM (inactive)
> 100 µM (inactive)
37.8 µM (inactive)
> 100 µM (inactive)

Task: Look up GI50 for this compound: CC(CCC(=O)O)(c1ccc(O)cc1)c1ccc(O)cc1
Output: > 100 µM (inactive)

* * *

# Tested on: SNB-75
# Assay: NCI tumour cell line growth inhibition, 48 h
The source made the active and inactive calls. Cut-off read from the data, not from the text of the source: active = GI50 up to about 1.1 µM and inactive = higher.
Readout kind: GI50

Example cases with answers are listed next.
COc1ccc(-c2c(N)n(-c3nc4ccccc4s3)c(=O)c3cc([N+](=O)[O-])ccc23)cc1 ... 8.43 µM (inactive)
CC(=O)NC(CCCCNC(=O)N(C)N=O)C(=O)NCc1ccccc1 (stereo not given) ... 43.4 µM (inactive)
COC1CC(NC(=O)C(F)(F)F)C(OC(C)=O)C(C)O1 (stereo not given) ... > 100 µM (inactive)
c1ccc2c(c1)CCc1c-2n(CCN2CCCCC2)c2ccccc12 ... 16.4 µM (inactive)

We now examine a further compound.
Task: Recorded GI50 for CN1C(=O)CC(c2cccc(C3CC(=O)N(C)C3=O)n2)C1=O (stereo not given) with SNB-75, please?
Output: > 100 µM (inactive)

* * *

# Tested on: HL-60
# Assay: NCI tumour cell line growth inhibition, 48 h
Active and inactive are the calls of the source. Rule as the data show it: active = GI50 up to about 1.1 µM and inactive = higher.
Readout kind: GI50

Hi, could you look up GI50 for each item in my list?
1. COC(=O)CSc1cc(Cl)c(C)cc1S(=O)(=O)Nc1n[nH]c(N)n1
2. CCOC(CCNCC(OCC)OCC)OCC
3. COc1ccc(C2S/C(=C\c3cc(OC)c(OC)c(OC)c3)C(=O)N2NC(=O)Cc2ccccc2)cc1 (stereo unspecified)
4. NC(=O)C(=CNC(N)=S)C(N)=O
5. C=C(CCC(C(=O)O)C1CCC2(C)C3=C(CCC12C)C1(C)CCC(O)C(C)(C)C1CC3)C(C)C (stereo unspecified)

Output:
1. > 10 µM (inactive)
2. > 10 µM (inactive)
3. > 100 µM (inactive)
4. > 100 µM (inactive)
5. > 10 µM (inactive)

Return reported GI50 values for all items listed beneath this line.
1. C/C(=C1\N=C(c2ccccc2)OC1=O)c1ccccc1
2. C=CCC1=C2CCCCC2CCC1=O (stereo unspecified)
3. CC12CCCCC1C(=O)C2(Cl)Cl (stereo unspecified)
4. Cc1noc(NS(=O)(=O)c2ccc(NC(=O)c3ccc4nc5ccccc5c(Nc5ccc(S(=O)(=O)Nc6onc(C)c6C)cc5)c4c3)cc2)c1C
5. CCCCCCCN1C(=O)C(O)(c2ccc(C3(O)C(=O)N(CCCCCCC)c4ccccc43)s2)c2ccccc21 (stereo unspecified)

Output:
> 100 µM (inactive)
> 100 µM (inactive)
1.76 µM (inactive)
42.3 µM (inactive)
1.56 µM (inactive)

Task: # GI50 lookup, item O=c1ncccn1[C@@H]1O[C@H](CO)[C@H](O)C1O (stereo partly specified)
Output: 47.3 µM (inactive)
